Tested on: Escherichia coli
Assay: Covalent allosteric inhibition of recombinant Escherichia coli beta-glucuronidase using PNPG as substrate at 10 uM incubated for 30 mins by absorbance based microplate reader assay relative to control
Parameter: inhibition. Scope: all listed entries.
readoutLabel: inhibition

molSmiles: C=CCCn1[se]c2ccccc2c1=O
endpointResult: < 90%

molSmiles: CCn1[se]c2ccccc2c1=O
endpointResult: < 90%

molSmiles: Clc1ccc2c(c1)C(N1CCNCC1)=Nc1ccccc1O2
endpointResult: 88.9%

molSmiles: O=c1c2ccccc2[se]n1-c1ncc(C(F)(F)F)cc1Cl
endpointResult: < 90%

molSmiles: O=c1c2ccccc2[se]n1-c1ccc2[nH]ccc2c1
endpointResult: > 90%

molSmiles: O=c1c2ccccc2[se]n1-c1nnc(CC(F)(F)F)s1
endpointResult: 6.11%

molSmiles: CN1CCC(n2[se]c3ccccc3c2=O)CC1
endpointResult: 93.9%
